- PROCEDURE_SUMMARY: chemical genetic growth profiling, strain panel (AID 1159580);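 further: tested at 20 µM; growth read once vehicle control cultures reached saturation at 30 °C; 1 = growth at the plate median or of vehicle wells; lower values mean less growth of the strain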
- STUDY_CONDITIONS: S. cerevisiae deletion strains, growth OD, locus YLR371W, strain rom2
In all, about 5,500 compounds went through this assay and about 2,000 (36%) were called active. Not shown: some 18% with an inconclusive outcome. No stated cut-off is given here; in the data, active means normalized growth mostly below about 0.91 (no sharp cut-off); inconclusive means no clear call, values can overlap the other calls; inactive means mostly above about 0.92. Some of the results follow.
Your answer must be one of the following: label 1 for active, label 0 for inactive

Exam item: Given `C1CCc2nnnn2CC1` , state the outcome it received in this test.
Marked response: label 0

Exam item: Lab log entry: `Cc1c(O)cc(O)c2c(=O)c(-c3ccc(O)cc3)coc12` — outcome as called in the assay?
Marked response: label 0

Exam item: Give the logged outcome of this assay for the following compound: `CNc1ccccc1C(=O)N1CCc2c([nH]c3ccccc23)C1=O`
Marked response: label 0

Exam item: Hey, what did the test say about `Oc1ccc(O)cc1` ?
Marked response: label 0

Exam item: Just curious, what result did `COC(=O)[C@H]1[C@H]2C[C@H]3c4[nH]c5ccccc5c4CCN3C[C@H]2CC[C@@H]1O` get here?
Marked response: label 0

Exam item: Lab log entry: CCC1(C)CC(=O)NC1=O (configuration not stated) — outcome as called in the assay?
Marked response: label 0

Exam item: Test call, this compound: `C/C=C(/C(=C/C)c1ccc(O)cc1)c1ccc(O)cc1`
Marked response: label 1

Exam item: Write down the call the test reported for this compound. Item: CCC(C(=O)O)c1ccccc1 (configuration not stated)
Marked response: label 0

Exam item: Just curious, what result did COC(=O)[C@@H]1C(O)CC[C@H]2CN3CCc4c([nH]c5ccccc45)[C@@H]3C[C@@H]21 (some centres not stated) get here?
Marked response: label 0

Exam item: Per the records of this test, what outcome belongs to COC(=O)C1[C@H]2C[C@H]3c4[nH]c5ccccc5c4CCN3C[C@@H]2CC[C@@H]1O (some centres not stated) ?
Marked response: label 0

Exam item: Returns: the outcome recorded for `Cc1cc(=O)c2c(O)c(C)c(O)cc2o1` in this assay.
Marked response: label 0

Exam item: Can you look up the reported call for `Cc1cc(=O)c2c(O)cc(O)c(C)c2o1` for me?
Marked response: label 0

###

For each of the compounds below, state its normalized growth.
- PROCEDURE_SUMMARY: chemical genetic growth profiling, strain panel (AID 1159580);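 further: tested at 20 µM; growth read once vehicle control cultures reached saturation at 30 °C; 1 = growth at the plate median or of vehicle wells; lower values mean less growth of the strain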
- STUDY_CONDITIONS: S. cerevisiae deletion strains, growth OD, locus YPL055C, strain LGE1, hits give low values
The whole screen tested about 5,500 compounds, of which about 2,000 (36%) were called active. Inconclusive results (about 18%) are left out. Some of the results follow.

Exam item: Specify measured normalized growth for `CN(C)C=Nc1nc2c(s1)CCc1ccccc1-2` .
Marked response: 0.799 (active)

Exam item: Quickly give me recorded normalized growth for `C[C@H]1OC[C@@H](C[N+](C)(C)C)O1`
Marked response: 1.05 (inactive)

Exam item: Provide only the value of recorded normalized growth for CC(=O)O[C@]1(C(C)=O)CCC2C3C=C(C)C4=CC(=O)CCC4(C)C3CCC21C (stereo not given in full)
Marked response: 0.828 (inactive)

Exam item: Supply normalized growth value. Item: `COc1ccccc1C1CCN(C(=O)c2ccc(F)cc2)CC1`
Marked response: 0.926 (inactive)

Exam item: Note down normalized growth recorded for `NCC1(CC(=O)O)CCCCC1`
Marked response: 0.999 (inactive)

Exam item: Return normalized growth (reported value) for this compound: `CCCCCCCCCCCCC/C=C/[C@@H](O)[C@@H](N)CO`
Marked response: 0.757 (active)

Exam item: Could you please provide reported normalized growth for `COc1ccccc1N1CCN(CCCCNC(=O)c2ccc3ccccc3c2)CC1` ? Thanks!
Marked response: 0.999 (inactive)

Exam item: Quickly give me recorded normalized growth for O=C(CSc1ccc(C(F)(F)F)cn1)N1CCc2c([nH]c3ccccc23)C1C(F)(F)F (stereo not given)
Marked response: 0.954 (inactive)

Exam item: Output normalized growth of `COC(=O)c1c(C)[nH]c(C)c1C(C)=O`
Marked response: 1.05 (inactive)

Exam item: // fetch normalized growth given entry `CN(C)CC[C@@H](c1ccc(Cl)cc1)c1ccccn1`
Marked response: 1.01 (inactive)

Exam item: Identify measured normalized growth corresponding to `C=CC(C)(C)c1c2c(c(O)c3c(=O)c4ccc(O)c(O)c4oc13)C=CC(C)(C)O2`
Marked response: 0.451 (active)

Exam item: # return recorded normalized growth for input CCCC[N+]1(C)C2CC(OC(=O)[C@H](CO)c3ccccc3)CC1C1OC12 (stereo not given in full)
Marked response: 0.987 (inactive)

Exam item: Retrieve normalized growth measured for O=C(O)C1C(O)CCC2CN3CCc4c([nH]c5ccccc45)C3CC21 (stereo not given) and print it.
Marked response: 1.03 (inactive)

Exam item: Identify normalized growth associated with the compound `CNc1ccccc1C(=O)N1CCc2c([nH]c3ccccc23)C1=O`
Marked response: 0.991 (inactive)

Exam item: Give the reported normalized growth for this compound. `CC(C)(C)NC(=O)N1CCN(c2nc3ccc(Cl)cc3s2)CC1`
Marked response: 0.928 (inactive)

Exam item: // Input: `CC(C)[C@@]1(NC(=O)[C@@H]2C=C3c4cccc5[nH]cc(c45)C[C@H]3N(C)C2)O[C@@]2(O)[C@@H]3CCCN3C(=O)[C@H](Cc3ccccc3)N2C1=O` . Output its normalized growth only.
Marked response: 0.99 (inactive)

Exam item: Supply measured normalized growth of CC(=O)[C@H]1CCC2C3C[C@H](C)C4=CC(=O)CC[C@]4(C)C3[C@@H](O)C[C@@]21C (stereo not given in full) in your reply.
Marked response: 0.991 (inactive)

Exam item: Read the entry `Cc1nn(-c2ccccc2)nc1C(=O)NC(=O)N1CCCC1` and write its reported normalized growth.
Marked response: 1 (inactive)

Exam item: Let me know recorded normalized growth for CC1(C)C2CC[C@]3(C)C(C(=O)C=C4[C@H]5C[C@@](C)(C(=O)O)CC[C@]5(C)CC[C@]43C)[C@@]2(C)CC[C@@H]1O (stereo not given in full) , thanks.
Marked response: 1.05 (inactive)

Exam item: For the compound `C[C@H](NC(=O)/C(C#N)=C/c1ccc(O)c(O)c1)c1ccccc1` , give its reported normalized growth.
Marked response: 0.924 (inactive)

Exam item: Answer with the recorded normalized growth for the compound listed here: `CCOC(=O)/C=C(\C)OP(=O)(OC)OC`
Marked response: 0.975 (inactive)

Exam item: Assign normalized growth to the following record: `CN(C)/C=C1\C(=O)c2ccccc2N(C)S1(=O)=O`
Marked response: 1.13 (inactive)

Exam item: Read the entry CCc1cccc(C)c1N(C(=O)CCl)C(C)COC (stereo not given) and write its reported normalized growth.
Marked response: 1.03 (inactive)

Exam item: Return reported normalized growth. Input compound: CC(N)Cc1c[nH]c2ccc(O)cc12 (stereo not given)
Marked response: 1.01 (inactive)

Exam item: Item CC1(C)C2CC[C@]3(C)C(C(=O)C=C4[C@@H]5C[C@@](C)(C(=O)O)CC[C@]5(C)CC[C@]43C)[C@@]2(C)CC[C@@H]1OC(=O)CCC(=O)O (stereo not given in full) : provide normalized growth
Marked response: 1.08 (inactive)

Exam item: Supply recorded normalized growth for `CC(C)(C)OC(=O)N1CCC(C(N)=O)CC1` here.
Marked response: 1.01 (inactive)

Exam item: Please report the measured normalized growth for `COC(=O)c1c(C)[nH]c(C)c1C(=O)c1ccccc1Cc1ccccc1`
Marked response: 1.01 (inactive)

Exam item: Return normalized growth for the following compound: `NC(N)=Nc1nc(CSCCC(N)=NS(N)(=O)=O)cs1`
Marked response: 0.97 (inactive)

Exam item: Give recorded normalized growth. `CC(=O)OCC(CCn1cnc2cnc(N)nc21)COC(C)=O`
Marked response: 0.992 (inactive)

Exam item: Using known records, supply normalized growth for O=C(O)COCC(=O)N1CCc2c([nH]c3ccccc23)C1C(F)(F)F (stereo not given)
Marked response: 0.961 (inactive)

Exam item: Please list normalized growth recorded for the compound `NC1=C(c2ccccc2)C(=O)NC1=O`
Marked response: 0.994 (inactive)

Exam item: Report normalized growth, nothing else, for this compound: `NC(N)=NOCC[C@H](N)C(=O)O`
Marked response: 1.02 (inactive)

Exam item: For the compound `O=C(Nc1ccccc1C(=O)Nc1ccc(Br)cc1)c1ccccc1` , give its reported normalized growth.
Marked response: 1.08 (inactive)

Exam item: Give the value of normalized growth reported for the following: `CCOC(=O)COc1ccc2c(c1)OC(C)(C)CC2=O`
Marked response: 0.849 (inactive)

Exam item: Tell me measured normalized growth for CCCCCC(C)N (stereo not given) please.
Marked response: 1.03 (inactive)

Exam item: Supply reported normalized growth belonging to this compound: `CC(C)N(C(=O)CCl)c1ccccc1`
Marked response: 1.03 (inactive)

Exam item: Give the measured normalized growth for `Cc1c(N(C)C)c(=O)n(-c2ccccc2)n1C`
Marked response: 1 (inactive)

Exam item: Specify reported normalized growth for the compound shown: `CCCCCCCCCCCCCCC[C@H](O)[C@H](N)CO`
Marked response: 1.02 (inactive)

Exam item: Give normalized growth for COC(=O)[C@@H]1C(O)CC[C@H]2CN3CCc4c([nH]c5ccccc45)[C@@H]3C[C@@H]21 (stereo not given in full)
Marked response: 1.01 (inactive)

Exam item: Please list normalized growth recorded for the compound `COc1ccccc1C1CCN(Cc2ccc3ccccc3c2)CC1`
Marked response: 1.02 (inactive)

Exam item: Supply recorded normalized growth for `CN1C/C(=C\c2ccccc2Cl)C(=O)/C(=C/c2ccccc2Cl)C1` here.
Marked response: 0.92 (inactive)

Exam item: Give reported normalized growth value for `Cc1c(C(=O)O)cc(-c2ccccc2)n1-c1ccccc1`
Marked response: 0.865 (inactive)

Exam item: Given `O=[N+]([O-])c1cc(C(F)(F)F)ccc1N1CCN(CCO)CC1` , respond with its normalized growth.
Marked response: 1.03 (inactive)

Exam item: Fill in reported normalized growth for this entry: CCOC(=O)C1=C(C)NC(=S)NC1c1cccc(O)c1 (stereo not given)
Marked response: 0.991 (inactive)

Exam item: Specify normalized growth for `N#Cc1c(Cl)c(Cl)c(Cl)c(C#N)c1Cl` and stop.
Marked response: 1.01 (inactive)
